Test: Metabolic stability in mouse liver microsomes assessed as compound remaining at 1 uM after 60 mins
value.kind: remaining at 1 h, 1 µM (%)
Express it in %; write the number only.

Worked set:
>>> readout_value("Cc1cc2ccccc2n1CCNC(=O)/C=C/c1ccc(OCCO)c(OCCO)c1")
1.7
>>> readout_value("Cc1cc(/C=C/C(=O)NCCc2c(C)[nH]c3ccccc23)cc(C)c1F")
0.1
>>> readout_value("COc1ccc(/C=C/C(=O)NCCc2c(C)[nH]c3ccccc23)cc1OC")
0.2
>>> readout_value("Cc1cc(/C=C/C(=O)NCCn2c(C)cc3ccccc32)cc(C)c1F")
18.3

Dear colleague, I am looking for the recorded remaining at 1 h, 1 µM of the following compound: COc1cc(/C=C/C(=O)NCCc2c(C)[nH]c3ccccc23)cc(OC)c1OC
0

Request: COc1cc(/C=C/C(=O)NCCn2c(C)cc3ccccc32)cc(OC)c1OC
0.2

Request: Cc1[nH]c2ccccc2c1CCNC(=O)/C=C/c1ccc(OCCO)c(OCCO)c1
7.1

Attribution: ChEMBL document CHEMBL3259737
